- Test system: P-gp
- assay_summary: Bidirectional permeability in Caco-2 cells
- Type: in vitro ADME
- condition_context: human, Caco-2, with LY335979 5 µM; 5 µM, + 5 µM LY335979 (P-gp inhibitor)
measurement_name: Papp B→A at 60 min, 5 µM (nm/s)
Value expressed in nm/s; do not type the unit.

Enquiry: What does the data say about its Papp B→A at 60 min, 5 µM? Entry: O=C(CCCCCCCn1cc(CCCF)nn1)N1[C@@H]2[C@H](O)[C@@H](O)[C@@H](O)[C@@H](CO)[C@@H]21
Return: 9.5

Data origin, for the record: paper PMC10609273
